PROCEDURE SUMMARY: Tmax in ICR mouse plasma at 10 mg/kg, po
Type: ADME, organism-based
PARAMETER MEASURED: Tmax (min)
Respond numerically; units are min and should not be typed.

Req: If you can, please state the reported Tmax value of `COc1ccc(NC(=O)[C@@H](C)[C@H]2CC[C@H]3[C@@H]4C(=O)C=C5C(C)(C)C(=O)C(C#N)=C[C@]5(C)[C@H]4CC[C@]23C)cc1` .
Resp: 31.8

---

PROCEDURE SUMMARY: Clearance in ICR mouse plasma at 1.0 mg/kg, iv
Format: ADME, organism-based
PARAMETER MEASURED: clearance (mL/min/kg)
Respond numerically; units are mL/min/kg and should not be typed.

Req: If you can, please state the reported clearance value of `COc1ccc(NC(=O)[C@@H](C)[C@H]2CC[C@H]3[C@@H]4C(=O)C=C5C(C)(C)C(=O)C(C#N)=C[C@]5(C)[C@H]4CC[C@]23C)cc1` .
Resp: 197

---

SUBJECT OF TEST: UniProt Q15306
Sequence (Q15306 whole entry): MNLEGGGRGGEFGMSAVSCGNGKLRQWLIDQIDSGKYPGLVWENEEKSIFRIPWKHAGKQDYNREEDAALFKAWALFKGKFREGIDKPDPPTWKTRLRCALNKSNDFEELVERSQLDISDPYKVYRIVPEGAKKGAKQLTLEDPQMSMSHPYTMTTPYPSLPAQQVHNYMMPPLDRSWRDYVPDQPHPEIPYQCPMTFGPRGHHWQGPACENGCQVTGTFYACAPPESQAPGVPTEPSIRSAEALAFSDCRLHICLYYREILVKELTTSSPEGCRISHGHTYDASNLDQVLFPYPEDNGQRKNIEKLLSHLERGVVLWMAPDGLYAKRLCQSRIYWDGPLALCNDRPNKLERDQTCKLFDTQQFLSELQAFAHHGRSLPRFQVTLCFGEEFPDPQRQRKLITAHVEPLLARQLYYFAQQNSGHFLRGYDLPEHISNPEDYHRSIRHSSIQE
pIC50: −log10 of the molar value.
For each of the molecules below, state its pIC50.

Req: If you can, please state the reported pIC50 value of `C[C@H](C(=O)NC1CCCC1)[C@H]1CC[C@H]2[C@@H]3C(=O)C=C4C(C)(C)C(=O)C(C#N)=C[C@]4(C)[C@H]3CC[C@]12C` .
Resp: < 4.70

Req: If you can, please state the reported pIC50 value of `C[C@H](CO)[C@H]1CC[C@H]2[C@@H]3CCC4=CC(=O)CC[C@]4(C)[C@H]3CC[C@]12C` .
Resp: < 4.70

Req: If you can, please state the reported pIC50 value of Nc1cccc2c1CN(C1CCC(=O)NC1=O)C2=O (stereo not drawn) [LENALIDOMIDE] .
Resp: < 4.70

Req: If you can, please state the reported pIC50 value of `C[C@H](C(=O)OC1CCCCC1)[C@H]1CC[C@H]2[C@@H]3C(=O)C=C4C(C)(C)C(=O)C(C#N)=C[C@]4(C)[C@H]3CC[C@]12C` .
Resp: < 4.70

Req: If you can, please state the reported pIC50 value of `CCNC(=O)[C@@H](C)[C@H]1CC[C@H]2[C@@H]3C(=O)C=C4C(C)(C)C(=O)C(C#N)=C[C@]4(C)[C@H]3CC[C@]12C` .
Resp: < 4.70

Req: If you can, please state the reported pIC50 value of `COc1ccc(NC(=O)C[C@@H](C)[C@H]2CC[C@H]3[C@@H]4C(=O)C=C5C(C)(C)C(=O)C(C#N)=C[C@]5(C)[C@H]4CC[C@]23C)cc1` .
Resp: 4.82

Req: If you can, please state the reported pIC50 value of `COc1ccc(NC(=O)[C@@H](C)[C@H]2CC[C@H]3[C@@H]4C(=O)C=C5C(C)(C)C(=O)C(C#N)=C[C@]5(C)[C@H]4CC[C@]23C)cc1OC` .
Resp: 4.73

Req: If you can, please state the reported pIC50 value of `C[C@H](C(=O)Nc1nccs1)[C@H]1CC[C@H]2[C@@H]3C(=O)C=C4C(C)(C)C(=O)C(C#N)=C[C@]4(C)[C@H]3CC[C@]12C` .
Resp: 4.85

---

PROCEDURE SUMMARY: AUC (0 to infinity) in ICR mouse plasma at 10 mg/kg, po
Format: ADME, organism-based
PARAMETER MEASURED: AUC(0-inf) (ng·h/mL)
Respond numerically; units are ng·h/mL and should not be typed.

Req: If you can, please state the reported AUC(0-inf) value of `COc1ccc(NC(=O)[C@@H](C)[C@H]2CC[C@H]3[C@@H]4C(=O)C=C5C(C)(C)C(=O)C(C#N)=C[C@]5(C)[C@H]4CC[C@]23C)cc1` .
Resp: 463

---

PROCEDURE SUMMARY: Selectivity ratio IC50 for human RPMI-8226 cells to IC50 for human MM1.R cells
Type: toxicity
PARAMETER MEASURED: Ratio IC50
Kindly provide the number alone.

Req: If you can, please state the reported Ratio IC50 value of `Cc1ccc(NC(=O)[C@@H](C)[C@H]2CC[C@H]3[C@@H]4C(=O)C=C5C(C)(C)C(=O)C(C#N)=C[C@]5(C)[C@H]4CC[C@]23C)cc1` .
Resp: 1

Req: If you can, please state the reported Ratio IC50 value of `COc1ccc(NC(=O)[C@@H](C)[C@H]2CC[C@H]3[C@@H]4C(=O)C=C5C(C)(C)C(=O)C(C#N)=C[C@]5(C)[C@H]4CC[C@]23C)cc1` .
Resp: 10.8

Req: If you can, please state the reported Ratio IC50 value of `C[C@H](C(=O)Nc1ccccc1)[C@H]1CC[C@H]2[C@@H]3C(=O)C=C4C(C)(C)C(=O)C(C#N)=C[C@]4(C)[C@H]3CC[C@]12C` .
Resp: 6.5

Req: If you can, please state the reported Ratio IC50 value of `C[C@H](C(=O)n1cccn1)[C@H]1CC[C@H]2[C@@H]3C(=O)C=C4C(C)(C)C(=O)C(C#N)=C[C@]4(C)[C@H]3CC[C@]12C` .
Resp: 1.4

Req: If you can, please state the reported Ratio IC50 value of `C[C@H](C(=O)O)[C@H]1CC[C@H]2[C@@H]3C(=O)C=C4C(C)(C)C(=O)C(C#N)=C[C@]4(C)[C@H]3CC[C@]12C` .
Resp: 1.2

Req: If you can, please state the reported Ratio IC50 value of `C[C@H](C(=O)n1ccnc1)[C@H]1CC[C@H]2[C@@H]3C(=O)C=C4C(C)(C)C(=O)C(C#N)=C[C@]4(C)[C@H]3CC[C@]12C` .
Resp: 1.7

Req: If you can, please state the reported Ratio IC50 value of `C[C@H](C(=O)Nc1ccc(O)cc1)[C@H]1CC[C@H]2[C@@H]3C(=O)C=C4C(C)(C)C(=O)C(C#N)=C[C@]4(C)[C@H]3CC[C@]12C` .
Resp: 4.3

---

PROCEDURE SUMMARY: AUC (0 to t) in ICR mouse plasma at 10 mg/kg, po
Assay type: ADME, organism-based
PARAMETER MEASURED: AUC(0-t)

Req: If you can, please state the reported AUC(0-t) value of `COc1ccc(NC(=O)[C@@H](C)[C@H]2CC[C@H]3[C@@H]4C(=O)C=C5C(C)(C)C(=O)C(C#N)=C[C@]5(C)[C@H]4CC[C@]23C)cc1` .
Resp: 285 ng·h/mL

---

PROCEDURE SUMMARY: AUC (0 to t) in ICR mouse plasma at 1.0 mg/kg, iv
Type: ADME, organism-based
PARAMETER MEASURED: AUC(0-t) (ng·h/mL)
Respond numerically; units are ng·h/mL and should not be typed.

Req: If you can, please state the reported AUC(0-t) value of `COc1ccc(NC(=O)[C@@H](C)[C@H]2CC[C@H]3[C@@H]4C(=O)C=C5C(C)(C)C(=O)C(C#N)=C[C@]5(C)[C@H]4CC[C@]23C)cc1` .
Resp: 81

---

PROCEDURE SUMMARY: Oral bioavailability in ICR mouse plasma at 10 mg/kg
Assay type: ADME, organism-based
PARAMETER MEASURED: bioavailability
Please provide the amount together with its unit, number first.

Req: If you can, please state the reported bioavailability value of `COc1ccc(NC(=O)[C@@H](C)[C@H]2CC[C@H]3[C@@H]4C(=O)C=C5C(C)(C)C(=O)C(C#N)=C[C@]5(C)[C@H]4CC[C@]23C)cc1` .
Resp: 53.9%

---

PROCEDURE SUMMARY: Cmax in ICR mouse plasma at 1.0 mg/kg, iv
Format: ADME, organism-based
PARAMETER MEASURED: Cmax (ng/mL)
Respond numerically; units are ng/mL and should not be typed.

Req: If you can, please state the reported Cmax value of `COc1ccc(NC(=O)[C@@H](C)[C@H]2CC[C@H]3[C@@H]4C(=O)C=C5C(C)(C)C(=O)C(C#N)=C[C@]5(C)[C@H]4CC[C@]23C)cc1` .
Resp: 174
